STUDY_TARGET: MC1-R (B-16 mouse melanoma cells) (Mus musculus)
Construct: B-16 mouse melanoma cells (containing MC1-R); endogenous in cells
Sequence (Q01727 whole entry): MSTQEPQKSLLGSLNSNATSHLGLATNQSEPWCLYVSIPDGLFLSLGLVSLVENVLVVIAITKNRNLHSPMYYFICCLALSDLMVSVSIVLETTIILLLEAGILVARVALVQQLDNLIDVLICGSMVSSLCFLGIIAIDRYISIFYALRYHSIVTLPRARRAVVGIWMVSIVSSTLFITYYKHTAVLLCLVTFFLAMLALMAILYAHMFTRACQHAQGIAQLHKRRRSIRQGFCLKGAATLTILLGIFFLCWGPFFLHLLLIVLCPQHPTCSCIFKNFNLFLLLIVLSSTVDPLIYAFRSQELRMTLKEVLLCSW
MEASUREMENT_PROTOCOL: Competitive inhibition binding assay using [I125]-NDP-α-MSH, MC1-R
MEASUREMENT_PARAMETERS: radioligand [I125]-NDP-α-MSH, B-16 mouse melanoma membranes
Where a SMILES comes first, the peptide text is derived from it. Bridges are numbered along the chain shown (N, C = ends). [ ]: non-standard residue; d: D form. 1Nal = N[C@@H](Cc1cccc2ccccc12)C(=O)O; Nle = CCCC[C@H](N)C(=O)O
ASSAY_ENDPOINT: Ki (nM)
One number for each entry, in nM.

Below, each entry is followed by its recorded Ki result.
MOLECULE	Ki [nM]
CCNC(=O)[C@@H]1CCCCNC(=O)C[C@H](NC(C)=O)C(=O)N[C@@H](Cc2c[nH]cn2)C(=O)N[C@H](Cc2ccccc2)C(=O)N[C@@H](CCCNC(=N)N)C(=O)N[C@@H](Cc2cccc3ccccc23)C(=O)N1 [Example 16] (Ac-DH[dF]R[1Nal]K-NHEt; lactam 1-6 (inferred))	18
CC(=O)N[C@H]1CC(=O)NCCCC[C@@H](C(=O)N(C)C)NC(=O)[C@H](Cc2cccc3ccccc23)NC(=O)[C@H](CCCNC(=N)N)NC(=O)[C@@H](Cc2ccccc2)NC(=O)[C@H](Cc2c[nH]c3ccccc23)NC1=O [Example 15] (Ac-DW[dF]R[1Nal]K-NMe2; lactam 1-6 (inferred))	215
CC(=O)N[C@H]1CC(=O)NCCCC[C@@H](C(=O)N(C)C)NC(=O)[C@H](Cc2cccc3ccccc23)NC(=O)[C@H](CCCNC(=N)N)NC(=O)[C@@H](Cc2ccccc2)NC(=O)[C@H](Cc2c[nH]cn2)NC1=O [Example 17] (Ac-DH[dF]R[1Nal]K-NMe2; lactam 1-6 (inferred))	40

Consider now this further molecule.
Prompt: Data request, read-out Ki, for CCCC[C@H](NC(C)=O)C(=O)N[C@H]1CC(=O)NCCCC[C@@H](C(=O)NCC)NC(=O)[C@H](Cc2cccc3ccccc23)NC(=O)[C@H](CCCNC(=N)N)NC(=O)[C@@H](Cc2ccccc2)NC(=O)[C@H](Cc2c[nH]c3ccccc23)NC1=O [Example 18] (Ac-[Nle]DW[dF]R[1Nal]K-NHEt; lactam 2-7 (inferred))
Response: 3
